This collection of values is drawn from ChEMBL document CHEMBL5308504.

- experimental.system: Tyrosine-protein kinase ABL1 (Homo sapiens) (UniProt P00519)
- Sequence (P00519 whole entry): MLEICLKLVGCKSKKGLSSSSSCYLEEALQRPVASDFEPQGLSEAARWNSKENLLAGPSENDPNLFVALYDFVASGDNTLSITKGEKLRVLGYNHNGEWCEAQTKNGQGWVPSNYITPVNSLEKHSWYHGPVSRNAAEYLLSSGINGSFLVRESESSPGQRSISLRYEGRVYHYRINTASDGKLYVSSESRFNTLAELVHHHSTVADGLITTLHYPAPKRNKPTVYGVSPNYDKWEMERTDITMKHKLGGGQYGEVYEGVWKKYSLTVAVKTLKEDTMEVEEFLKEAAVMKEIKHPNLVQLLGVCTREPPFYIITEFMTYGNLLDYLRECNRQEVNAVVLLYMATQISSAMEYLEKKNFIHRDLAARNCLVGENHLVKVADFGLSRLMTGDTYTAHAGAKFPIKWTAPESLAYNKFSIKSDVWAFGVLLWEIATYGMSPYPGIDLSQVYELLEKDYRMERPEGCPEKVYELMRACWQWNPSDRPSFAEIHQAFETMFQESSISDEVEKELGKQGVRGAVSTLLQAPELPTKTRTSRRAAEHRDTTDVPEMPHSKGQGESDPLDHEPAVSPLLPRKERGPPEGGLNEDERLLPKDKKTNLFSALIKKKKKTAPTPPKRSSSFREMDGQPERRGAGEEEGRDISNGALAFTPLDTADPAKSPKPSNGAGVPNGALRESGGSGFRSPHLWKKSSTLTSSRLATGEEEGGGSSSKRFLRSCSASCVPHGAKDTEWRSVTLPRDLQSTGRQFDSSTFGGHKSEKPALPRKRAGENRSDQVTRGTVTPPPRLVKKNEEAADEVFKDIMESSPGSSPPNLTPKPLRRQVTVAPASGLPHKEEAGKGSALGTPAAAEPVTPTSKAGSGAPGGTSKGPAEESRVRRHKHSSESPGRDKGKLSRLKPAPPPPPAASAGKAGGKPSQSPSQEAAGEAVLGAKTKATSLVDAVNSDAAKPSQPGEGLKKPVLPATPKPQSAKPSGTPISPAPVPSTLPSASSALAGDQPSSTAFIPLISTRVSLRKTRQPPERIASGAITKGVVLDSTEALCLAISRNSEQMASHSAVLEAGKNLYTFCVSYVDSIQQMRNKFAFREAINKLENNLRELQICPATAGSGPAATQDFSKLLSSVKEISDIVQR
- condition.info: Compound concentration 20.0 uM, Protein concentration 2.0 uM, Result type QC Liability
- Description: Thermal Shift Assay. Domain: start/stop: S229-K512
measured.endpoint: ΔTm (°C)
One number for each entry, in °C.

compound	ΔTm [°C]
CC(=O)Nc1ncc(CN2CCC[C@H](Cc3cc(C)nc(C)c3)C2)s1	0.26
O=c1cc(C2CCNCC2)n2nc3cccc(Cl)c3c2[nH]1	0.46
Cc1[nH]nc(C(F)(F)F)c1Cc1sc2c(c1C(=O)N1C[C@](C)(O)CO1)c(=O)n(C)c(=O)n2C(C)C	0.24
COc1cc(-c2cncc(-c3ccc(N4CCN(C(C)C)CC4)cc3)c2C)cc(F)c1C(=O)N1CCCC1	0.7
CNC(=O)c1ccc(C)c(-n2c(C)cc(OCc3ccc(F)cc3F)c(Br)c2=O)c1	-0.5
CCc1nc(-c2cccc(C)c2)c(-c2ccncc2)s1	1.94
CCCCc1oc2ccccc2c1C(=O)c1cc(I)c(OCCN(CC)CC)c(I)c1	0.12
O=C(O)CCCCCC[C@@H]1C(=O)NC(=O)N1CCC(O)C1CCCCC1 (stereo not given in full)	0.19

Give ΔTm for each of the items listed below.
1. N=C(N)NCCC[C@H](NC(=O)C(c1ccccc1)c1ccccc1)C(=O)NCc1ccc(CNC(N)=O)cc1
2. C#Cc1cnc2[nH]cc(-c3cccc4c3CCN4C(=O)[C@@H]3CCCN3C#N)c2c1

-- reply
[-0.28, 5.17]
